- target: HLA-B*39:01
- test-summary: IEDB peptide-MHC binding, purified MHC/competitive/fluorescence; filed as Kd, often an IC50 or EC50 that approximates it; bounds were set here for any values at or beyond the usual limits of such assays
- run-conditions: source organism: Entamoeba dispar SAW760
pKd: −log10 of the molar value.
value-type: pKd

Per the record, KGFFRVFKK has pKd of ≤ 4.70

* * *

- target: HLA-B*15:01
- test-summary: IEDB peptide-MHC binding, purified MHC/direct/fluorescence; filed as Kd, often an IC50 or EC50 that approximates it; bounds were set here for any values at or beyond the usual limits of such assays
- run-conditions: source organism: Influenza A virus (A/tiger/Thailand/CU-T6/04(H5N1))
pKd: −log10 of the molar value.
value-type: pKd

Per the record, TYQWIIRNW has pKd of ≤ 4.70

* * *

- target: HLA-A*03:01
- test-summary: IEDB peptide-MHC binding, purified MHC/competitive/fluorescence; bounds were set here for any values at or beyond the usual limits of such assays
- run-conditions: source organism: Zaire ebolavirus
value-type: pIC50
Keep it numeric: pIC50 is minus log10 of the concentration in mol/L.

Per the record, AGLITGGRR has pIC50 of 4.16

* * *

- target: HLA-B*57:01
- test-summary: IEDB peptide-MHC binding, purified MHC/direct/fluorescence; filed as Kd, often an IC50 or EC50 that approximates it; bounds were set here for any values at or beyond the usual limits of such assays
- run-conditions: source organism: Camelpox virus M-96
value-type: Kd

Per the record, SLYKYLLLR has Kd of ≥ 20 µM

* * *

The entries below come with measured Kd values attached.
- target: HLA-A*01:01
- test-summary: IEDB peptide-MHC binding, purified MHC/competitive/radioactivity; filed as Kd, often an IC50 or EC50 that approximates it; bounds were set here for any values at or beyond the usual limits of such assays
- run-conditions: source organism: Dengue virus 1 Brazil/97-11/1997
Answer in µM, number only, no unit symbol.

| record-sequence | target | Kd [µM] |
| --- | --- | --- |
| IVQYENLKY | HLA-A*01:01 | 5.95 |
| YSDRRWCFD | HLA-A*01:01 | 1.07 |

Per the record, LTSREVLLL has Kd of 0.288

* * *

- target: HLA-A*24:03
- test-summary: IEDB peptide-MHC binding, purified MHC/direct/fluorescence; filed as Kd, often an IC50 or EC50 that approximates it; bounds were set here for any values at or beyond the usual limits of such assays
- run-conditions: source organism: Escherichia coli
pKd: −log10 of the molar value.
The entries below come with measured pKd values attached.

| record-sequence | measured-value |
| --- | --- |
| LAAPCRNAL | ≤ 5.30 |

Okay, now this sequence:
Per the record, GLKRGGVLL has pKd of ≤ 4.70

* * *

- target: HLA-A*69:01
- test-summary: IEDB peptide-MHC binding, purified MHC/competitive/fluorescence; filed as Kd, often an IC50 or EC50 that approximates it; bounds were set here for any values at or beyond the usual limits of such assays
- run-conditions: source organism: Cryptosporidium parvum Iowa II
pKd: −log10 of the molar value.
value-type: pKd

Per the record, RLKHIFLIF has pKd of ≤ 4.70

* * *

- target: HLA-B*48:01
- test-summary: IEDB peptide-MHC binding, purified MHC/direct/fluorescence; filed as Kd, often an IC50 or EC50 that approximates it; bounds were set here for any values at or beyond the usual limits of such assays
- run-conditions: source organism: Brucella abortus
pKd: −log10 of the molar value.
value-type: pKd

Per the record, GLAEKPNDY has pKd of ≤ 4.70

* * *

- target: HLA-B*58:01
- test-summary: IEDB peptide-MHC binding, purified MHC/direct/fluorescence; filed as Kd, often an IC50 or EC50 that approximates it; bounds were set here for any values at or beyond the usual limits of such assays
- run-conditions: source organism: Mammarenavirus lassaense
value-type: Kd (nM)
Answer in nM, number only, no unit symbol.

Per the record, STAIELGAW has Kd of 13.3

* * *

- target: HLA-A*31:01
- test-summary: IEDB peptide-MHC binding, purified MHC/direct/fluorescence; filed as Kd, often an IC50 or EC50 that approximates it; bounds were set here for any values at or beyond the usual limits of such assays
- run-conditions: source organism: Camelpox virus CMS
value-type: pKd
Keep it numeric: pKd is minus log10 of the concentration in mol/L.

Per the record, KVFFGPIYY has pKd of 5.89

* * *

- target: HLA-B*07:02
- test-summary: IEDB peptide-MHC binding, purified MHC/direct/fluorescence; filed as Kd, often an IC50 or EC50 that approximates it; bounds were set here for any values at or beyond the usual limits of such assays
- run-conditions: source organism: Vibrio vulnificus CMCP6
pKd: −log10 of the molar value.
value-type: pKd

Let me check: EMSLADYLY , system HLA-B*07:02, measured pKd is ≤ 4.70

* * *

- target: HLA-A*02:16
- test-summary: IEDB peptide-MHC binding, purified MHC/competitive/fluorescence; filed as Kd, often an IC50 or EC50 that approximates it; bounds were set here for any values at or beyond the usual limits of such assays
- run-conditions: source organism: Entamoeba dispar SAW760
pKd: −log10 of the molar value.
value-type: pKd

Per the record, KGFFRVFKK has pKd of ≤ 4.70

* * *

- target: HLA-B*51:01
- test-summary: IEDB peptide-MHC binding, purified MHC/competitive/fluorescence; filed as Kd, often an IC50 or EC50 that approximates it; bounds were set here for any values at or beyond the usual limits of such assays
- run-conditions: source organism: Influenza A virus (A/swine/Italy/1513-1/1998(H1N1))
value-type: Kd

Per the record, MMWEINGPK has Kd of ≥ 20 µM

* * *

- target: HLA-A*29:02
- test-summary: IEDB peptide-MHC binding, purified MHC/competitive/radioactivity; filed as Kd, often an IC50 or EC50 that approximates it; bounds were set here for any values at or beyond the usual limits of such assays
- run-conditions: source organism: Lymphocytic choriomeningitis virus (strain WE)
value-type: pKd
Keep it numeric: pKd is minus log10 of the concentration in mol/L.

Per the record, MTKEASREY has pKd of 6.21

* * *

- target: HLA-B*46:01
- test-summary: IEDB peptide-MHC binding, purified MHC/direct/fluorescence; filed as Kd, often an IC50 or EC50 that approximates it; bounds were set here for any values at or beyond the usual limits of such assays
- run-conditions: source organism: Tai Forest virus - Cote d'Ivoire, Cote d'Ivoire, 1994
pKd: −log10 of the molar value.
value-type: pKd

Per the record, FAEGVIAFL has pKd of ≤ 4.70

* * *

The entries below come with measured Kd values attached.
- target: HLA-A*11:01
- test-summary: IEDB peptide-MHC binding, purified MHC/competitive/radioactivity; filed as Kd, often an IC50 or EC50 that approximates it; bounds were set here for any values at or beyond the usual limits of such assays
- run-conditions: source organism: Mammarenavirus juninense

| record-sequence | Kd |
| --- | --- |
| MVGLFSNNPH | 5.96 µM |

Per the record, NKQYIHCFRK has Kd of 0.652 µM

* * *

- target: HLA-A*03:01
- test-summary: IEDB peptide-MHC binding, purified MHC/direct/fluorescence; filed as Kd, often an IC50 or EC50 that approximates it; bounds were set here for any values at or beyond the usual limits of such assays
- run-conditions: source organism: Orthohantavirus negraense
value-type: Kd

Per the record, NIYETEFFM has Kd of ≥ 20 µM

* * *

- target: HLA-A*03:01
- test-summary: IEDB peptide-MHC binding, purified MHC/direct/fluorescence; filed as Kd, often an IC50 or EC50 that approximates it; bounds were set here for any values at or beyond the usual limits of such assays
- run-conditions: source organism: Yersinia pestis Nepal516
value-type: Kd

Let me check: YLHRDIFDI , system HLA-A*03:01, measured Kd is ≥ 20 µM

* * *

The entries below come with measured IC50 values attached.
- target: HLA-B*15:01
- test-summary: IEDB peptide-MHC binding, purified MHC/competitive/fluorescence; bounds were set here for any values at or beyond the usual limits of such assays
- run-conditions: source organism: Zaire ebolavirus

| record-sequence | IC50 |
| --- | --- |
| ATEDPSSGY | ≥ 97.2 µM |
| VMNHKNKFM | 18 µM |

Okay, now this sequence:
Per the record, RTNFLIKFL has IC50 of ≥ 725 µM

* * *

- target: HLA-A*11:01
- test-summary: IEDB peptide-MHC binding, purified MHC/direct/fluorescence; filed as Kd, often an IC50 or EC50 that approximates it; bounds were set here for any values at or beyond the usual limits of such assays
- run-conditions: source organism: Brucella suis
value-type: pKd
Keep it numeric: pKd is minus log10 of the concentration in mol/L.

Per the record, LTLKPCHAL has pKd of 4.74
